Listed here: molecules with reported MIC for S. aureus 29213.
Write the number in µg/mL without appending the unit.

> print(dat)
                                   molecule  parameter.measured  experimental.result
1  O=C1CSc2ccc(N3C[C@H](CCCn4c(=O)[nH]c5ccc(N6CCCC6)cc5c4=O)OC3=O)cc2N1 [Example 37]                 MIC                  0.5
2  COc1cccc2[nH]c(=O)n(CCC[C@@H]3CN(c4ccc5c(c4)NC(=O)CS5)C(=O)O3)c(=O)c12 [Example 33]                 MIC                0.125
3  O=C1CSc2ccc(N3C[C@@H](CCCn4c(=O)[nH]c5cccc(F)c5c4=O)OC3=O)cc2N1 [Example 17]                 MIC                0.125
4  Cn1c(=O)n(CCNC[C@@H]2CN(c3ccc4c(n3)NC(=O)CS4)C(=O)O2)c(=O)c2ccccc21.O=CO [Example 55]                 MIC                0.031

Moving on to the next molecule.
Answer with the recorded MIC of Cc1cccc2[nH]c(=O)n(CCNC[C@@H]3CN(c4ccc5c(c4)NC(=O)CS5)C(=O)O3)c(=O)c12 [Example 59] only.
0.25

* * *

Measured MIC accompanies every entry in the list below.
- Test system: S. aureus 29213
Write the number in µg/mL without appending the unit.

> print(dat)
                                   molecule  experimental.result
1  Cc1cccc2c(=O)n(CCC[C@@H]3CN(c4ccc5c(n4)NC(=O)CO5)C(=O)O3)c(=O)[nH]c12                0.063
2  Cn1c(=O)n(CC(O)CC[C@@H]2CN(c3ccc4c(n3)NC(=O)CS4)C(=O)O2)c(=O)c2ccccc21 (mixture of isomers)                0.125

Switching to the query record.
// fetch MIC given entry Cn1c(=O)n(CCNC[C@@H]2CN(c3ccc4c(c3)NC(=O)CS4)C(=O)O2)c(=O)c2ccccc21
0.125

* * *

- Tested on: S. aureus 29213
Binary call on MIC with cut-off 0.06 µg/mL: strictly below means MET, and equality or higher means NOT MET.

Use these answered entries as a reference point.
> print(dat)
                                   compound     assay.system  category
1  Cc1cccc2[nH]c(=O)n(CCC[C@H]3CN(c4ccc5c(n4)NC(=O)CS5)C(=O)O3)c(=O)c12  S. aureus 29213       MET
2  O=C1CSc2ccc(N3C[C@H](CCCn4c(=O)[nH]c5c(Cl)ccc(Cl)c5c4=O)OC3=O)cc2N1  S. aureus 29213       MET
3  Cc1cccc2c1c(=O)n(CCC[C@H]1CN(c3ccc4c(c3)NC(=O)CS4)C(=O)O1)c(=O)n2C  S. aureus 29213       MET

# TODO verify MIC < 0.06 µg/mL strictly for this compound: O=C1CSc2ccc(N3C[C@H](CCCn4c(=O)[nH]c5cccc(Cl)c5c4=O)OC3=O)cc2N1
MET

I'd appreciate it if you could check whether COc1c(F)c(F)cc2c(=O)n(CCC[C@H]3CN(c4ccc5c(c4)NC(=O)CS5)C(=O)O3)c(=O)n(C3CC3)c12 has MIC smaller than 0.06 µg/mL.
MET

* * *

Measured MIC accompanies every entry in the list below.
- Test system: S. aureus 29213

Answered examples (3):
> print(dat)
                               smiles.input  experimental.result
1  COc1ccc2[nH]c(=O)n(CCC[C@@H]3CN(c4ccc5c(c4)NC(=O)CS5)C(=O)O3)c(=O)c2c1          0.063 µg/mL
2  Cn1c(=O)n(CCC[C@H]2CN(c3ccc4c(c3)NC(=O)CS4)C(=O)O2)c(=O)c2ccccc21        ≤ 0.016 µg/mL
3  Cn1c(=O)n(CCNC[C@@H]2CN(c3ccc4c(c3)NC(=O)CS4)C(=O)O2)c(=O)c2cccc(Cl)c21        ≤ 0.016 µg/mL

Identify MIC associated with the molecule Cn1c(=O)n(CCCC[C@@H]2CN(c3ccc4c(n3)NC(=O)CS4)C(=O)O2)c(=O)c2ccccc21
≤ 0.016 µg/mL

* * *

Target or system S. aureus 29213: recorded MIC listed per item.
Please give a number only; it is taken to be in µg/mL.

> print(dat)
                                   compound     assay.system  parameter.measured  experimental.result
1  O=C1CSc2ccc(N3CC(CCCCn4c(=O)[nH]c5ccccc5c4=O)OC3=O)cc2N1 (racemic)  S. aureus 29213                 MIC                0.031
2  O=C1COc2ccc(N3C[C@@H](CCCn4c(=O)[nH]c5cccc(Cl)c5c4=O)OC3=O)nc2N1  S. aureus 29213                 MIC                0.125
3  O=C1CSc2ccc(N3C[C@H](CCCn4c(=O)[nH]c5cc6ccccc6cc5c4=O)OC3=O)cc2N1  S. aureus 29213                 MIC                0.031
4  O=C1CSc2ccc(N3C[C@@H](CCCn4c(=O)[nH]c5cc(F)ccc5c4=O)OC3=O)cc2N1  S. aureus 29213                 MIC                0.063
5  O=C1CSc2ccc(N3C[C@@H](CCCn4c(=O)c5cccc6c5n(c4=O)CCC6)OC3=O)cc2N1  S. aureus 29213                 MIC                 0.25

Report MIC on S. aureus 29213 for this entry: O=C1CSc2ccc(N3C[C@@H](CCCn4c(=O)[nH]c5ccc(F)cc5c4=O)OC3=O)cc2N1
0.031

Under S. aureus 29213, report MIC for Cc1cccc2[nH]c(=O)n(CCC[C@@H]3CN(c4ccc5c(n4)NC(=O)CO5)C(=O)O3)c(=O)c12
0.031

* * *

// values below are MIC; system is S. aureus 29213
Number only, in µg/mL; omit the unit.

Reference set (5 entries):
> print(dat)
                               smiles.input     assay.system  experimental.result
1  O=C1CSc2ccc(N3C[C@@H](CNCCn4c(=O)[nH]c5ccccc5c4=O)OC3=O)nc2N1  S. aureus 29213                  0.5
2  COc1cccc2c(=O)n(CCC[C@@H]3CN(c4ccc5c(c4)NC(=O)CS5)C(=O)O3)c(=O)[nH]c12  S. aureus 29213                0.031
3  O=C1CSc2ccc(N3C[C@@H](CCCn4c(=O)[nH]c5cc(Cl)ccc5c4=O)OC3=O)cc2N1  S. aureus 29213                0.063
4  O=C1CSc2ccc(N3C[C@@H](CCCn4c(=O)[nH]c5cccc(Cl)c5c4=O)OC3=O)cc2N1  S. aureus 29213                0.031
5  C=Cc1ccc2c(=O)n(CCC[C@@H]3CN(c4ccc5c(c4)NC(=O)CS5)C(=O)O3)c(=O)n(C)c2c1  S. aureus 29213                0.063

Could you now consider this next compound?
# return MIC for O=C1CSc2ccc(N3C[C@@H](CNCCn4c(=O)[nH]c5c(Cl)cccc5c4=O)OC3=O)cc2N1 , test system: S. aureus 29213
0.25

* * *

// reported log10 of MIC per item
- Tested on: S. aureus 29213
Please be aware that the numbers have been log10-transformed from MIC in µg/mL.

// solved cases for log10 of MIC follow
> print(dat)
                                   compound  parameter.measured  experimental.result
1  CC(=O)N(CCn1c(=O)c2ccccc2n(C)c1=O)C[C@@H]1CN(c2ccc3c(n2)NC(=O)CS3)C(=O)O1        log10 of MIC                -0.60
2  O=C1CSc2ccc(N3C[C@@H](CNCCn4c(=O)[nH]c5ccccc5c4=O)OC3=O)cc2N1        log10 of MIC                 0.00
3  COC(=O)/C=C/c1ccc2c(=O)n(CCNCCC3CN(c4ccc5c(c4)NC(=O)CS5)C(=O)O3)c(=O)n(C)c2c1 (racemic)        log10 of MIC                -1.51
4  O=C1CSc2ccc(N3C[C@@H](CCCn4c(=O)[nH]c5cc(F)c(F)cc5c4=O)OC3=O)cc2N1        log10 of MIC                -1.20
5  Cn1c(=O)n(C[C@H](O)CC[C@@H]2CN(c3ccc4c(c3)NC(=O)CO4)C(=O)O2)c(=O)c2ccccc21 (racemic)        log10 of MIC                 0.00

Name the recorded log10 of MIC of Cn1c(=O)n(CCNCC[C@@H]2CN(c3ccc4c(c3)NC(=O)CS4)C(=O)O2)c(=O)c2cccc(Cl)c21 , assay system S. aureus 29213.
-0.90

// output log10 of MIC; input O=C1CSc2ccc(N3C[C@@H](CCCn4c(=O)[nH]c5ccc(Cl)cc5c4=O)OC3=O)cc2N1 ; system S. aureus 29213
-1.20
